pIC50 by entry:
system: Total ATXN3 (tATXN3) protein; assay: Endogenous Total ATXN3 (tATXN3) Protein Assay (MSD immunoassay of cell lysates); assay type: cell-based; details: average IC50, total ATXN3 protein in cell lysate after 48 h with compound (Table 1)
pIC50: −log10 of the molar value.

Example results:
N[C@H]1CCCCCC[C@H]1c1cc2nc(Cl)cc(NCc3cccs3)c2s1 :: < 6.00
Cc1c([C@H]2COCC[C@@H]2N)sc2c(NCc3cccs3)cc(Cl)nc12 :: ≥ 7.52
N[C@H]1CCCO[C@@H]1c1c(Cl)c2nc(Cl)cc(NCc3cccs3)c2n1C(F)F :: 6.52 to 7.52

**Q:** What pIC50 value was documented for this compound, N[C@@H]1CC=CC[C@H]1c1c(I)c2nc(Cl)nc(NCc3ccco3)c2n1C(F)F ?
**A:** 6.52 to 7.52

**Q:** What pIC50 value was documented for this compound, N[C@@H]1CC=CC[C@H]1c1sc2c(NCc3ccco3)nc(Cl)nc2c1I ?
**A:** 6.52 to 7.52

**Q:** What pIC50 value was documented for this compound, N[C@H]1CCCCC[C@@H]1c1sc2c(NCc3cccs3)cc(Cl)nc2c1I ?
**A:** 6.52 to 7.52

**Q:** What pIC50 value was documented for this compound, N[C@H]1CCCC[C@@H]1c1sc2c(NCc3cccs3)cc(Cl)nc2c1Cl (single isomer, unassigned) ?
**A:** ≥ 7.52

**Q:** What pIC50 value was documented for this compound, Cc1c([C@@H]2CCCCCC[C@@H]2N)sc2c(NCc3cccs3)cc(Cl)nc12 ?
**A:** < 6.00

###

System: Total ATXN3 (tATXN3) protein
Assay: Endogenous Total ATXN3 (tATXN3) Protein Assay (MSD immunoassay of cell lysates)
Assay type: cell-based
Conditions: average IC50, total ATXN3 protein in cell lysate after 48 h with compound (Table 1)
Method: Endogenous Total ATXN3 (tATXN3) Protein Assay Meso Scale Discovery (MSD) 96-well or 384-well plates were coated overnight at 4° C. with Ataxin 3 mouse monoclonal antibody (Invitrogen, MA3-082) at a concentration of 0.5 μg/mL in PBS (30 μL per well). […] Cells were thawed and incubated in cell culture media (DMEM, 10% FBS, and 1% antibiotic cocktail) for 72 h. Cells were trypsinized, counted, and re-suspended to a concentration of 100,000 cells/mL in cell culture media. […]
pIC50: −log10 of the molar value.
measuredMetric: pIC50

Cc1c([C@@H]2CC=CC[C@H]2N)sc2c(NCc3ccco3)nc(Cl)nc12 :: 6.52 to 7.52
Cc1c([C@@H]2OCCC[C@H]2N)sc2c(NCc3ccco3)cc(Cl)nc12 :: < 6.00
N[C@@H]1CCOC[C@H]1c1sc2c(NCc3cccs3)cc(Cl)nc2c1Cl :: ≥ 7.52

In the following, a different molecule is considered.
**Q:** What pIC50 value was documented for this molecule, N[C@@H]1CCCCC[C@H]1c1sc2c(NCc3cccs3)cc(Cl)nc2c1Br ?
**A:** < 6.00

###

System: Total ATXN3 (tATXN3) protein
Test: Endogenous Total ATXN3 (tATXN3) Protein Assay (MSD immunoassay of cell lysates)
Format: cell-based
Conditions: average IC50, total ATXN3 protein in cell lysate after 48 h with compound (Table 1)
Method: Endogenous Total ATXN3 (tATXN3) Protein Assay Meso Scale Discovery (MSD) 96-well or 384-well plates were coated overnight at 4° C. with Ataxin 3 mouse monoclonal antibody (Invitrogen, MA3-082) at a concentration of 0.5 μg/mL in PBS (30 μL per well). […] Cells were thawed and incubated in cell culture media (DMEM, 10% FBS, and 1% antibiotic cocktail) for 72 h. Cells were trypsinized, counted, and re-suspended to a concentration of 100,000 cells/mL in cell culture media. […]
IC50 by entry:

Example results:
CN[C@H]1CCCC[C@@H]1c1sc2c(NCc3cccs3)cc(Cl)nc2c1C#CCCCO [Compound 264] :: 30 to 300 nM
CCc1c([C@H]2CCC[C@@H]2N)sc2c(NCc3cccs3)cc(Cl)nc12 [Compound 11] :: 300 to 1000 nM

**Q:** What IC50 value was documented for this compound, N[C@@H]1CCCC[C@H]1c1sc2c(NCc3ccco3)cc(Cl)nc2c1Cl [Compound 296] ?
**A:** 30 to 300 nM

**Q:** What IC50 value was documented for this compound, N[C@@H]1CCCC[C@@H]1c1sc2c(NCc3cccs3)cc(Cl)nc2c1Cl [Compound 14] ?
**A:** > 1000 nM

The measurements presented in this section are drawn from patent US20250382305A1.
